Recorded values, source patent US20220324835A1.

Biological target: Cbl-b (Homo sapiens, UniProt Q13191)
Test: Cbl-b inhibition assay (Cbl-b activity assay, FRET, Biological Example 1; 100 mM NaCl, 60 nM Src kinase)
Format: biochemical
Settings: upper bound stated in text lists; read-out: IC50 values in the Cbl-b inhibition assay of Biological Example 1
pIC50: −log10 of the molar value.
# pIC50 listing for each entry below

C[C@H](Cc1nncn1C)c1cccc(NC(=O)c2cc(S(N)(=O)=O)cc(C(F)(F)F)n2)c1    ≥ 6.30

Query: Record request: pIC50 value, item CC(c1cc(C(=O)Nc2cccc(C3(Cc4nncn4C)COC3)c2)nc(C2CC2)n1)N1CC(F)C1 (centres unmarked)
Result: ≥ 7.00

Query: For C[C@H](Cc1nncn1C)c1cc(N2Cc3c(cccc3C(F)(F)F)C2=O)ccc1F , what is its reported pIC50?
Result: ≥ 5.00

Query: I am curious: what pIC50 value has been reported for Cn1cnnc1CC1(c2cccc(NC(=O)c3cc(CN4CC[C@H](O)C4)nc(C4CC4)n3)c2)COC1 ?
Result: ≥ 7.00

Query: pIC50 for C[C@H](Cc1nncn1C)c1cccc(N2Cc3c(ccnc3C(F)(F)F)C2=O)c1 ?
Result: ≥ 6.52

====

fold induction at 1.11 µM overview
Test system: primary human total T-cells
Test: T-cell activation assessed by CD69 expression
Format: cell-based
Conditions: CD3 alone stimulation, CD4 T-cells, 1.11 μM, read-out: % CD69+ (CD4)

C[C@H](Cc1nncn1C)c1cccc(NC(=O)c2cccc(CCO)n2)c1 [Compound 202]    ≤ 1.2
CNCc1ccc(C(=O)Nc2cccc([C@H](C)Cc3nncn3C)c2)nc1C1CC1 [Compound 376]    > 1.6
C[C@H](Cc1nncn1C)c1cccc(N2Cc3c(cc(CN4CC[C@H](F)C4)cc3C(F)(F)F)C2=O)c1 [Compound 399]    > 1.6

Query: # fold induction at 1.11 µM lookup, item C[C@H](Cc1nncn1C)c1cccc(N2Cc3c(cc(CN4CC(C)(O)C4)cc3C(F)(F)F)C2=O)c1 [Compound 397]
Result: > 1.6

Query: So what does the record say about fold induction at 1.11 µM for Cn1cnnc1CC1(c2cccc(N3Cc4c(cc(CN5CC(F)C5)cc4C(F)(F)F)C3=O)c2)COC1 [Compound 415] ?
Result: > 1.6

Query: I'd like to know its fold induction at 1.11 µM. The compound in question is Cn1cnnc1CC1(c2cccc(NC(=O)c3nc4c(C(F)(F)F)cccc4[nH]3)c2)COC1 [Compound 335]
Result: > 1.6

Query: Can you look up the measured fold induction at 1.11 µM of C[C@H](Cc1nncn1C)c1cccc(NC(=O)c2cc3cc(N4CCNCC4)ccc3cn2)c1 [Compound 472] for me?
Result: 1.4 to 1.6

====

pKd: −log10 of the molar value.
Below are molecules with their pKd as measured on Cbl-b (residues 36-427) (Homo sapiens, UniProt Q13191).
Sequence (Q13191 36-427): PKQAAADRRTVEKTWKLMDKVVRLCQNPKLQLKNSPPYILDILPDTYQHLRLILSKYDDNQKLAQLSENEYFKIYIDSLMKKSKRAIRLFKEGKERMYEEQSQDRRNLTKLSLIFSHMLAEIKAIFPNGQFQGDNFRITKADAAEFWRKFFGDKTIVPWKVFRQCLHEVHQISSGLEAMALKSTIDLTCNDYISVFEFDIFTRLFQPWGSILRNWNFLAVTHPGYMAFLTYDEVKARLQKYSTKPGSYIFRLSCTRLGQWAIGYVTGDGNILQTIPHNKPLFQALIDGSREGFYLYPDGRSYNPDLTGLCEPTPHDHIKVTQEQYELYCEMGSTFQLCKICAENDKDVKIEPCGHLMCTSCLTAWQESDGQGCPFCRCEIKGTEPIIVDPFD

CCC(Sc1nncn1C)c1cccc(NC(=O)c2ccc3ccccc3n2)c1 (centres unmarked) [Compound 136]    5.00 to 5.52
Cc1c[nH]nc1-c1cc2c(c(C(F)(F)F)c1)CN(c1cccc([C@H](C)Cc3nncn3C)c1)C2=O [Compound 377]    > 7.00
C[C@H](Sc1nncn1C)c1cccc(NC(=O)c2cc(C(=O)N3C[C@H](O)[C@@H](O)C3)ccn2)c1 [Compound 155]    5.00 to 5.52
C[C@H](Sc1nncn1C)c1cccc(NC(=O)c2ccc(CO)c(C3CC3)n2)c1 [Compound 89]    6.52 to 7.00
C[C@H](Sc1nncn1C)c1cccc(NC(=O)c2cccc3scnc23)c1 [Compound 88]    5.00 to 5.52

Query: Write down the reported pKd of Cn1cnnc1C(F)(F)[C@](C)(F)c1cccc(N2Cc3c(cc(CN4CC(F)C4)cc3C(F)(F)F)C2=O)c1 [Compound 451] , test system: Cbl-b (residues 36-427) (Homo sapiens, UniProt Q13191).
Result: > 7.00

Query: Item: C[C@@H](c1cccc(N2Cc3c(cccc3C(F)(F)F)C2=O)c1)[C@@H](F)c1nncn1C (single isomer, unassigned) [Compound 474a] Test system: Cbl-b (residues 36-427) (Homo sapiens, UniProt Q13191) Read-out: pKd Value: ?
Result: 6.52 to 7.00

Query: Param readout = pKd; param system = Cbl-b (residues 36-427) (Homo sapiens, UniProt Q13191); param query = Cc1[nH]ncc1-c1cc2c(c(C(F)(F)F)c1)CN(c1cccc([C@H](C)Cc3nncn3C)c1)C2=O [Compound 381] ; response: value
Result: > 7.00

Query: Lookup: pKd / Cbl-b (residues 36-427) (Homo sapiens, UniProt Q13191) / C[C@@H](Cc1nncn1C)c1cccc(NC(=O)c2cc3cc(N4CCN(C)C(=O)C4)ccc3cn2)c1 [Compound 210, 2,2,2-trifluoroacetate]
Result: 5.00 to 5.52

Query: Field: pKd (Cbl-b (residues 36-427) (Homo sapiens, UniProt Q13191)). Entry: C[C@H](Sc1nncn1C)c1cccc(NC(=O)c2cc(C(F)(F)F)c3ccccc3n2)c1 [Compound 83]
Result: 5.00 to 5.52

====

Tested on: T-cell
Assay: CD25 cell surface staining on T-cells co-stimulated with anti-CD3 and anti-CD28 antibody (Biological Example 2)
Assay type: cell-based, human
Conditions: Homo sapiens, T-cell, fold change over baseline; 4 μM Cbl-b inhibitor; primary human total T-cells; read-out: CD25 staining Anti-CD3/Anti-CD28 stimulation
endpoint-name: fold induction at 4 µM

Answered examples (3):
Cn1cnnc1CC1(c2cccc(NC(=O)c3nc4c(C(F)(F)F)cccc4[nH]3)c2)COC1    1.51 to 1.75
CC(Sc1nncn1C)c1cccc(NC(=O)c2ccc3ccccc3n2)c1 (stereo not shown)    1.01 to 1.3
C[C@@H](Cc1nncn1C)c1cccc(NC(=O)c2cc(C(=O)N3CC[C@H](O)C3)cc(C3CC3)n2)c1    1.31 to 1.5

# evaluate next
Query: Give its fold induction at 4 µM value. Item: Cn1cnnc1C(F)(F)C(C)(F)c1cccc(N2Cc3c(cccc3C(F)(F)F)C2=O)c1 (racemic)
Result: 1.01 to 1.3

====

The following molecules are shown together with reported IC50 values.
Target: UniProt:Q13191
Experiment: Cbl-b inhibition assay (Cbl-b activity assay, FRET, Biological Example 1; 100 mM NaCl, 60 nM Src kinase)
Type: biochemical
Conditions: upper bound stated in text lists; read-out: IC50 values in the Cbl-b inhibition assay of Biological Example 1

Would you please look over these solved cases?
C[C@H](Cc1nncn1C)c1cccc(NC(=O)c2cc(O[C@@H]3CC[C@@H](O)C3)ccn2)c1 (relative stereo) [Compound 205]    ≤ 100 nM
C[C@H](Cc1n[nH]cc1C(F)(F)F)c1cccc(N2Cc3c(cc(C(=O)N4CC[C@H](O)C4)cc3C(F)(F)F)C2=O)c1 [Compound 465]    ≤ 100 nM

Query: I am curious: what IC50 value has been reported for Cn1cnnc1CC1(c2cccc(N3Cc4c(cc(CN5CC[C@H](F)[C@@H](F)C5)cc4C(F)(F)F)C3=O)c2)COC1 [Example 626a] ?
Result: ≤ 100 nM

Query: What value of IC50 has been reported for the following molecule? Cn1cnnc1CC1(c2cccc(N3Cc4c(cc(CN5CC6CC5CO6)cc4C(F)(F)F)C3=O)c2)COC1 (stereo not drawn) [Example 619]
Result: ≤ 100 nM

Query: Entry under review: C[C@H](Sc1nncn1C)c1ccnc(NC(=O)c2cccc(Cl)n2)c1 [Compound 124] . Reported IC50?
Result: ≤ 10000 nM

Query: Report IC50 for C[C@H](Sc1nncn1C)c1cccc(NC(=O)c2cc(C(=O)N3CCCCC3)ccn2)c1 [Compound 144] please.
Result: ≤ 10000 nM

====

Listed here: items and their measured Kd.
Molecular target: Cbl-b (residues 36-427) (Homo sapiens)

Cc1ncc(C(=O)Nc2cccc([C@H](C)Sc3nncn3C)c2)nc1C1CC1    301 to 1000 nM

Query: Please provide the recorded Kd for COCC(Sc1nncn1C)c1cccc(NC(=O)c2cccc(C(F)(F)F)n2)c1 (centres unmarked) , tested on Cbl-b (residues 36-427) (Homo sapiens).
Result: 3000 to 10000 nM

Query: Recorded Kd for Cn1cnnc1C[C@@](C)(F)c1cccc(N2Cc3c(cccc3C(F)(F)F)C2=O)c1 [Compound 298a] with Cbl-b (residues 36-427) (Homo sapiens), please?
Result: 3000 to 10000 nM

Query: // lookup Kd | system=Cbl-b (residues 36-427) (Homo sapiens) | key= C[C@H](Sc1nncn1C)c1cccc(NC(=O)c2cc(C(=O)N3C[C@H](O)C[C@@H]3C)ccn2)c1
Result: 1000 to 3000 nM

Query: // lookup Kd | system=Cbl-b (residues 36-427) (Homo sapiens) | key= C[C@H](Sc1nncn1C)c1cccc(NC(=O)c2cc(C(F)(F)F)cc(C(F)(F)F)n2)c1
Result: 1000 to 3000 nM

Query: Kd of Cc1conc1C[C@@H](C)c1cccc(N2Cc3c(cccc3C(F)(F)F)C2=O)c1 [Compound 367a] on Cbl-b (residues 36-427) (Homo sapiens)?
Result: 1000 to 3000 nM

Query: Which measured Kd belongs to C[C@H](Cc1nncn1C)c1cccc(NC(=O)c2cc(C(=O)N3C[C@@H]4[C@@H](O)[C@@H]4C3)ccn2)c1 , tested on Cbl-b (residues 36-427) (Homo sapiens)?
Result: 1000 to 3000 nM

Query: Request body: readout Kd, system Cbl-b (residues 36-427) (Homo sapiens), query Cn1cnnc1[C@@H]1CC[C@@H]1c1cccc(N2Cc3c(cccc3C(F)(F)F)C2=O)c1 [Compound 283b] . Return the value.
Result: 301 to 1000 nM

Query: Provide value of Kd for this record tested with Cbl-b (residues 36-427) (Homo sapiens): Cn1cnnc1CC1(c2cccc(N3Cc4c(cccc4C(F)(F)F)C3=O)c2)COC1
Result: 301 to 1000 nM

Query: Param readout= Kd; system= Cbl-b (residues 36-427) (Homo sapiens); entry= C[C@H](Cc1nncn1C)c1cccc(NC(=O)c2nc(C(F)(F)F)c[nH]2)c1 ; returns value.
Result: 100 to 300 nM

Query: State its Kd on Cbl-b (residues 36-427) (Homo sapiens): C[C@H](Cc1nncn1C)c1cccc(NC(=O)c2cc(C(=O)N3CCNCC3)ccn2)c1
Result: 3000 to 10000 nM
